Molecular target: Torsin-1A (Homo sapiens)
Assay: torsin A binders from cell lysate, primary screen, small-molecule microarray, wild-type, 635/667 nm (AID 1149)
Conditions: COS7 hTOR1A-WT lysate, 635 nm fluorescence, higher = more signal
measured-metric: composite z-score

C[C@H]1NC(=O)[C@@H](C)NC(=O)[C@@]23C(=O)N[C@@H](Cc4ccccc4)C2[C@H](C)[C@@]2(C)O[C@H]2C3/C=C/C/C=C\CNC1=O (some centres undefined)	0.153
C=CC[C@]1(C(=O)NCC(O)CO)N=C(c2ccc(OCCCO)cc2)O[C@H]1c1ccccc1 (some centres undefined)	2.71
NC(=O)NCC#Cc1ccc2c(c1)[C@]1(C(=O)N2)[C@H](C(=O)N2CCCCCCC2)[C@H]2C(=O)O[C@H](c3ccccc3)[C@H](c3ccccc3)N2[C@@H]1c1ccccc1OCCO	1.73
O=C1c2ccccc2[C@](Cc2ccccc2I)(C(=O)NCC(F)(F)F)[C@H](c2ccc(CO)cc2)N1Cc1ccccc1C(F)(F)F	0.305
COCC(=C=CC[C@H](O)c1ccc(OCCO)cc1)C[C@H](O)c1ccccn1	-0.353
COc1ccc(C(O)C2C=CC3C(=O)N(C)C(=O)C3N2N2CCCCC2)cc1OCc1ccccc1 (centres undefined)	0.0884
COc1ccc([Si](C)(C)[C@@H]2[C@@H](CCO)O[C@]3(C(=O)N(Cc4ccc(NC(=O)[C@H](C)O)cc4)c4ccccc43)[C@H]2C)cc1	0.504
COc1cccc([C@@H]2[C@@H](C)CC[C@H]3C(=O)N4[C@H](c5cccc(OC)c5)[C@@H](C)CC[C@H]4C(=O)N23)c1	0.504
CC1CC/C=C\[C@H]2OC34C=CCN(Cn5nnc6ccccc65)C(=O)[C@H]3N(C(C)CO)C(=O)[C@@H]4C2C(=O)O1 (some centres undefined)	-0.276
CCCNC(=O)[C@@H]1c2ccccc2C(=O)N(Cc2cc(F)cc(C(F)(F)F)c2)[C@H]1c1ccc(CO)cc1	0.528
C=C(/C(=C/C[C@@H](OC(=O)c1ccncc1)c1ccc(CO)o1)c1cnc2ccccc2c1)C(C)C	0.165
CCOC(=O)C1=CC[C@@H](c2ccccc2)N(S(=O)(=O)c2ccc(C)cc2)[C@H]1C	1.41
COCCOC(=O)N1C(=O)[C@@]2(c3ccccc31)[C@H](C(=O)N1CCc3cc(OC)c(OC)cc3C1)[C@H]1C(=O)O[C@H](c3ccccc3)[C@H](c3ccccc3)N1[C@@H]2c1ccccc1OCCO	0.435
COCCOC(=O)N1C(=O)[C@@]2(c3cc(C#CCC(C(=O)OC)C(=O)OC)ccc31)[C@H](c1ccccc1OCCO)N1[C@H](c3ccccc3)[C@H](c3ccccc3)OC(=O)[C@H]1[C@@H]2C(=O)N1CCCCCCC1	1.29
Cc1ccc(S[C@]2(C(=O)O)CC(=O)N(Cc3ccccc3)[C@@H]2c2ccc(CO)cc2)cc1	0.0253
C#CCNC(/C=C/c1ccccc1)CO (centres undefined)	0.304
CC1=C([C@H](O)CCc2ccccc2)[C@H](CO)[C@@H]2C(=O)N(Cc3ccccc3)C(=O)[C@@H]2C1	-0.0669
COc1cc2c(cc1OC)CN(C(=O)[C@H]1[C@@H]3C(=O)O[C@@H](c4ccccc4)[C@@H](c4ccccc4)N3[C@@H](c3ccccc3OCCO)[C@]13C(=O)Nc1ccc(C#CC4(O)CCCCCC4)cc13)CC2	0.808
CCOC(=O)C1=C[C@@H](c2ccccc2)N(S(=O)(=O)c2ccc(C)cc2)[C@H]1c1ccc(F)cc1	0.347
C=C[C@H](OC)[C@@H](OC(=O)Nc1ccc(SC)cc1)c1ccc(O)c(F)c1	0.373
O=C1O[C@H](c2ccccc2)[C@H](c2ccccc2)N2[C@H]1[C@@H](C(=O)Nc1nc3ccccc3s1)[C@]1(C(=O)Nc3ccc(C#CC4=CCCCC4)cc31)[C@H]2c1ccccc1OCCO	0.552
C=CC[C@@]1(C(=O)NCC(O)CO)N=C(c2ccc(OCCCO)cc2)O[C@@H]1c1ccccc1CN=[N+]=[N-] (some centres undefined)	1.09
COc1cccc([C@@H]2[C@@H](C)CC[C@H]3C(=O)N(C)[C@@H](C(C)C)C(=O)N23)c1	0.798
C[C@@H]1CC[C@H]2C(=O)N3[C@@H](CC[C@@H](C)[C@@H]3c3cccc(N4CCOCC4)c3)C(=O)N2[C@H]1c1cccc(Br)c1	0.472
COC(=O)[C@H]1[C@@H]2COc3ccccc3[C@H]2N[C@H]1C(=O)OC	0.425
CO[C@H]1COC(=O)CC=C[C@H](C)[C@@H](OC)COC(=O)CC=C[C@@H]1C	2.03
C=CCC(OC(C)=O)[C@@H]1[C@@H](N(Cc2cc3ccccc3o2)C(=O)c2ccc(C)cc2)c2cc(OCCCO)ccc2N1C(=O)c1ccc2ccccc2n1 (some centres undefined)	0.369
O=C1O[C@H](c2ccccc2)[C@H](c2ccccc2)N2[C@H]1[C@@H](C(=O)NC[C@H](O)c1ccccc1)[C@]1(C(=O)Nc3ccc(C#CC4(O)CCCCCC4)cc31)[C@H]2c1ccc(OCCO)cc1	0.127
O=C1C2C=CC(C(O)C#Cc3ccccc3)N(Nc3ccccc3)C2C(=O)N1c1ccccc1 (centres undefined)	0.795
